FYI, the data here is from patent US12384753B2.

Target: Recombinant human HSD17B13 (Homo sapiens (Human))
Sequence (Q7Z5P4 20-300): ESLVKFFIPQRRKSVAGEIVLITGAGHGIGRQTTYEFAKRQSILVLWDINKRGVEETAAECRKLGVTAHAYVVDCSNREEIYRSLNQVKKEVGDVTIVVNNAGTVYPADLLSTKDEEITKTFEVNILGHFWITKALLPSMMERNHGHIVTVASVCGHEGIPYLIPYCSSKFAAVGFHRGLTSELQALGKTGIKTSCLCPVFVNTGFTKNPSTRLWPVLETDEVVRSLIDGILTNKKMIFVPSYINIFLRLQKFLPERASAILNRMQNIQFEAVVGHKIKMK
Experiment: HSD17B13 rapid-fire mass spectrometry assay (RF/MS assay)
Conditions: inhibition of HSD17B13; LTB4 10 μM, NAD+ 0.5 mM, RT 3 h; IC50 ranges A-E
# key: entry, value: IC50
property: IC50

molecule | subject-of-test | result
O=C(O)c1ccc(NS(=O)(=O)c2cnc(-c3ccc(F)cc3)s2)c(O)c1 [Example 40] | Recombinant human HSD17B13 (Homo sapiens (Human)) | < 100 nM
CCC1CC=C(c2ccc(-c3nc(S(=O)(=O)Nc4ccc(C(=O)O)cc4OC)co3)cc2)CC1 (stereo not drawn) [Example 487] | Recombinant human HSD17B13 (Homo sapiens (Human)) | 100 to 500 nM
COc1cc(C(=O)O)ccc1NS(=O)(=O)c1ccc(-c2cnc(-c3ccccc3)s2)c(F)c1 [Example 332] | Recombinant human HSD17B13 (Homo sapiens (Human)) | 100 to 500 nM
O=C(O)C12CC(NS(=O)(=O)c3cnc(-c4ccc(F)cc4)s3)(C1)C2 [Example 68] | Recombinant human HSD17B13 (Homo sapiens (Human)) | > 100000 nM
COc1ccc(-c2nc(S(=O)(=O)Nc3ccc(C(=O)O)cc3OC)co2)cc1 [Example 415] | Recombinant human HSD17B13 (Homo sapiens (Human)) | < 100 nM
COc1cc(C(=O)O)ccc1NS(=O)(=O)Nc1ccc2nc(-c3ccc(F)cc3)sc2c1 [Example 328] | Recombinant human HSD17B13 (Homo sapiens (Human)) | 1000 to 100000 nM

----------
Biological target: Recombinant human HSD17B13 (Homo sapiens (Human))
Assay: HSD17B13 rapid-fire mass spectrometry assay (RF/MS assay)
Assay type: biochemical
Settings: inhibition of HSD17B13; LTB4 10 μM, NAD+ 0.5 mM, RT 3 h; IC50 ranges A-E
pIC50: −log10 of the molar value.
# key: entry, value: pIC50

record-smiles | pIC50
COc1cc(C(=O)O)c(-c2ccccc2)cc1NS(=O)(=O)c1csc(-c2ccc(C3CCC(C)(C)CC3)cc2C(F)(F)F)n1 | 4.00 to 6.00
COc1ccc(-c2nc(S(=O)(=O)Nc3ccc(C(=O)O)cc3OC)cs2)cc1 | 6.30 to 7.00
CCC[C@H]1CC[C@H](c2ccc(-c3nc(S(=O)(=O)Nc4cc(F)c(C(=O)O)cc4OC)cs3)c(F)c2)CC1 | > 7.00

----------
# key: entry, value: pIC50
Target: Recombinant human HSD17B13 (Homo sapiens (Human))
Assay: HSD17B13 rapid-fire mass spectrometry assay (RF/MS assay)
Details: inhibition of HSD17B13; LTB4 10 μM, NAD+ 0.5 mM, RT 3 h; IC50 ranges A-E
pIC50: −log10 of the molar value.
property: pIC50

molecule | result
COc1cc(C(=O)O)ccc1NS(=O)(=O)c1csc(-c2ccc(OC)c3ccccc23)n1 | 6.00 to 6.30
CCC[C@H]1CC[C@H](C2CC=C(c3ccc(-c4ncc(S(=O)(=O)Nc5ccc(C(=O)O)cc5OC)s4)cc3)CC2)CC1 (stereo partly shown) | 4.00 to 6.00
COc1cc(C(=O)O)c(F)cc1NS(=O)(=O)c1csc(C#Cc2ccc(C(F)(F)F)cc2)n1 | > 7.00
COc1cc(C(=O)O)ccc1NS(=O)(=O)c1csc(-c2ccc3c(c2)OCCO3)n1 | 6.30 to 7.00
COc1cc(C(=O)O)ccc1NS(=O)(=O)c1csc(N2Cc3ccccc3C2)n1 | 4.00 to 6.00
COc1cc(C(=O)O)ccc1NS(=O)(=O)c1ccc(-c2ccc(C)cc2)s1 | 6.30 to 7.00
CONC(=O)c1ccc(NS(=O)(=O)c2cnc(-c3ccc(F)cc3)s2)c(OC)c1 | 4.00 to 6.00
COc1cc(C(=O)O)c(F)cc1NS(=O)(=O)c1csc(-c2ccc(C3CCC(C)(C)CC3)c(F)c2OC)n1 | 6.30 to 7.00
COc1cc(C(=O)O)ccc1NS(=O)(=O)c1ccc(-c2ccc(C3CCC(C)(C)CC3)cc2)s1 | 6.30 to 7.00
COc1cc(C(=O)O)ccc1NS(=O)(=O)c1csc(N2CCCC(c3ccc(C(F)(F)F)cc3)C2)n1 (stereo not shown) | 4.00 to 6.00
CNS(=O)(=O)c1cc(OC)c(NS(=O)(=O)c2cnc(-c3ccc(F)cc3)s2)cc1C | 4.00 to 6.00
COc1cc(C(=O)O)ccc1NS(=O)(=O)c1csc(N2CCC(c3ccccn3)CC2)n1 | 4.00 to 6.00
COc1cc(C(=O)O)ccc1NS(=O)(=O)c1cnc(-c2ccc(C3=C[C@H]4CC[C@]3(C)C4(C)C)cc2)s1 | 6.30 to 7.00
CCCCC[C@H]1CC[C@H](c2ccc(-c3nc(S(=O)(=O)Nc4cc(F)c(C(=O)O)cc4OC)cs3)c(F)c2)CC1 | 6.30 to 7.00
COc1nc(C(=O)O)ccc1NS(=O)(=O)c1cnc(-c2ccc(F)cc2)s1 | 4.00 to 6.00
O=C(O)c1ccc(NS(=O)(=O)c2cnc(-c3ccc(F)cc3)s2)c(OC(F)(F)F)c1 | 4.00 to 6.00
COc1cc(C(=O)O)c(F)cc1NS(=O)(=O)c1csc(-c2ccc(C3CCC(C)(C)CC3)cc2OC)n1 | > 7.00
CCC1CC=C(c2ccc(-c3nc(S(=O)(=O)Nc4cc(F)c(C(=O)O)cc4OC)co3)cc2)CC1 (stereo not shown) | > 7.00
COc1cc(C(=O)O)ccc1NS(=O)(=O)c1csc(-c2cccc(F)c2)n1 | 6.30 to 7.00
COc1cc(C(=O)O)ccc1NS(=O)(=O)c1ccc(-c2ccc(F)cc2)cc1 | 6.30 to 7.00
COc1cc(C(=O)O)c(F)cc1NS(=O)(=O)c1csc(-c2ccc(C3CCC(C)(C)CC3)c(F)c2F)n1 | 6.30 to 7.00
COc1cc(C(=O)O)c(F)cc1NS(=O)(=O)c1csc(-c2ccc([C@H]3CC[C@H](C(C)(C)C)CC3)c(OC(C)C)c2F)n1 | 6.30 to 7.00
COc1cc(C(=O)O)ccc1NS(=O)(=O)c1ccc(-c2ccc(C3CCCCC3)cc2)cn1 | 4.00 to 6.00
COc1cc(C(=O)O)ccc1NS(=O)(=O)c1ccc(-c2ccccc2O)s1 | 4.00 to 6.00
COc1cc(C(=O)O)ccc1NS(=O)(=O)C1CCN(c2ncccn2)CC1 | 4.00 to 6.00
O=C(O)c1ccc(NS(=O)(=O)c2cnc(-c3ccc(F)cc3)s2)c2ncccc12 | 4.00 to 6.00
CC[C@H]1CC[C@H](c2ccc(-c3nc4ccc(S(=O)(=O)Nc5cc(F)c(C(=O)O)cc5OC)cc4s3)cc2)CC1 | 4.00 to 6.00
COc1cc(C(=O)O)c(F)cc1NS(=O)(=O)c1csc(-c2ccc(C3=CCC(C)(C)CC3)c(CO)c2)n1 | 6.30 to 7.00
